# System: Plasmodium falciparum
# ASSAY_NOTES: Antimalarial activity against chloroquine-sensitive Plasmodium falciparum D6 after 48 hrs by [3H]hypoxanthine incorporation assay
# Type: functional, organism-based
pIC50: −log10 of the molar value.
In this section, each of the molecules is paired with its reported pIC50.

[
  {
    "RECORD_SMILES": "CC[C@H]1OC(=O)[C@H](C)[C@@H](O[C@H]2C[C@@](C)(OC)[C@@H](O)[C@H](C)O2)[C@H](C)[C@@H](O[C@@H]2O[C@H](C)C[C@H](N(C)C)[C@H]2O)[C@](C)(O)C[C@@H](C)CN(CCNC(=O)NCc2ccccc2)[C@H](C)[C@@H](O)[C@]1(C)O",
    "pIC50": 6.49
  },
  {
    "RECORD_SMILES": "CC[C@H]1OC(=O)[C@H](C)[C@@H](O[C@H]2C[C@@](C)(OC)[C@@H](O)[C@H](C)O2)[C@H](C)[C@@H](O[C@@H]2O[C@H](C)C[C@H](N(C)C)[C@H]2O)[C@](C)(O)C[C@@H](C)CN(CCN(CCC#N)C(=O)Nc2ccc3ccccc3c2)[C@H](C)[C@@H](O)[C@]1(C)O",
    "pIC50": 6.28
  },
  {
    "RECORD_SMILES": "CC[C@H]1OC(=O)[C@H](C)[C@@H](O[C@H]2C[C@@](C)(OC)[C@@H](O)[C@H](C)O2)[C@H](C)[C@@H](O[C@@H]2O[C@H](C)C[C@H](N(C)C)[C@H]2O)[C@](C)(O)C[C@@H](C)CN(CCCN(CCC#N)C(=O)Nc2ccc3ccccc3c2)[C@H](C)[C@@H](O)[C@]1(C)O",
    "pIC50": 6.93
  },
  {
    "RECORD_SMILES": "CC[C@H]1OC(=O)[C@H](C)[C@@H](O[C@H]2C[C@@](C)(OC)[C@@H](O)[C@H](C)O2)[C@H](C)[C@@H](O[C@@H]2O[C@H](C)C[C@H](N(C)C)[C@H]2O)[C@](C)(O)C[C@@H](C)CN(CCNC(=O)Nc2ccccc2)[C@H](C)[C@@H](O)[C@]1(C)O",
    "pIC50": 6.65
  }
]
